All values here come from the supplement of paper PMC10065799.

- assayed-system: Grb2 SH2 (UniProt P62993)
- Sequence (P62993 whole entry, looked up): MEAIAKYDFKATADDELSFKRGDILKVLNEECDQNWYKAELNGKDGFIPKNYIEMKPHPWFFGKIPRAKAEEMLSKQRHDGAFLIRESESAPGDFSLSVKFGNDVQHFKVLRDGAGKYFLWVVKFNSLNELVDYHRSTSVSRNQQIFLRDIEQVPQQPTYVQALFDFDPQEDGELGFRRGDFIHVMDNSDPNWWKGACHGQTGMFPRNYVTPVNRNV
- experiment-notes: SH2 binding enrichment of the phosphorylated peptide, bacterial display (enrichment ratio); higher = better substrate or ligand; peptides without Tyr show the background
Entries and their SH2 binding enrichment values follow.
Reply briefly: the number, and no unit.

sequence-content | assayed-system | result-value
QNVADYMRYLM [RPL5_Y207] | Grb2 SH2 (UniProt P62993) | 1.12
TGTQLYGRFGS [ITGA2B_Y384] | Grb2 SH2 (UniProt P62993) | 0.779

## Task Any idea what its SH2 binding enrichment is? The sequence is SSMIDYNLLEK [MYOC_Y479_P481L]
## Result 0.822

## Task Entry TKGNEYVFRVA : reported SH2 binding enrichment = ?
## Result 0.871

## Task Name the recorded SH2 binding enrichment for PLGVLYKVKVF [PTS_Y128_V124L_YF] .
## Result 0.88

## Task Quick one: SH2 binding enrichment for TNFCLYLRSLE [MTM1_Y71_R69C_YF] ?
## Result 0.773

## Task Entry YNDSTYNQQLI [ZPLD1_Y198] : reported SH2 binding enrichment = ?
## Result 0.784

## Task # get_value(readout='SH2 binding enrichment', item= ESMLRYDVFGG [STOX1_Y607_E608D_YF] )
## Result 1.1

## Task Field request: SH2 binding enrichment | item: AEPDIYQEKLS [USP54_Y1233]
## Result 1.19

## Task Reported SH2 binding enrichment for NGSKGYAFVHF [PABPC5_Y147_YF] : what is it?
## Result 1.09

## Task Entry YDKEYYSVHNK [MET_Y1235] : reported SH2 binding enrichment = ?
## Result 0.759

## Task For TENAGYYFRVS , what is its reported SH2 binding enrichment?
## Result 0.878

## Task Please look up its SH2 binding enrichment: KEELAYLKKNH [KRT14_Y248]
## Result 0.912

----------
- assayed-system: FGFR1 (UniProt P11362)
- Sequence (P11362 whole entry, looked up): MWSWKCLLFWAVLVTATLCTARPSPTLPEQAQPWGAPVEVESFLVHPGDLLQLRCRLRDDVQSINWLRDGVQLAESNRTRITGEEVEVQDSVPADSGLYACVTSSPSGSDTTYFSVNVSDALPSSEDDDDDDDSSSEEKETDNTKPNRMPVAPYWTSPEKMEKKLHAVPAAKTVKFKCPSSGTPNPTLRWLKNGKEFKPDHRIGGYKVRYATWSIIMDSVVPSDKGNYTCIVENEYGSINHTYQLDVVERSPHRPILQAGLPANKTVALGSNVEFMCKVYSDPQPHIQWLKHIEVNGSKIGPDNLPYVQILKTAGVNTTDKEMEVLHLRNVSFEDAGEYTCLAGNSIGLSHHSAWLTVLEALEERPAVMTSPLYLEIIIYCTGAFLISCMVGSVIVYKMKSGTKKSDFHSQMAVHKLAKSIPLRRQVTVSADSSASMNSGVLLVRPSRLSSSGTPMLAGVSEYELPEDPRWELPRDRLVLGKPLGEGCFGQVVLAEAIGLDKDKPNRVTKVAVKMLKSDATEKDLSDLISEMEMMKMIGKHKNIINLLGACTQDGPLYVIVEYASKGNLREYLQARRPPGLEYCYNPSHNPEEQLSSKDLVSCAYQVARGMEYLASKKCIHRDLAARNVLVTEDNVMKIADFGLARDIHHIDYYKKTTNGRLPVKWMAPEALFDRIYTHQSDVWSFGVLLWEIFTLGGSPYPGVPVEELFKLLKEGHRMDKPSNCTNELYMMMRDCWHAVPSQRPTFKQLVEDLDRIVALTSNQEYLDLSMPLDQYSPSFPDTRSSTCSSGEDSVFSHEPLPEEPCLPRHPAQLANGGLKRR
- experiment-notes: phosphorylation enrichment, bacterial display (enrichment ratio); higher = better substrate or ligand; peptides without Tyr show the background
Overview of recorded phosphorylation enrichment for various sequences
Please reply with the value in numeric form only.

sequence-content | result-value
HSVVQYVGGVM [FGGY_Y136_L134V] | 0.447

## Task Sample SQSAKYDMAED [TTC21B_Y1213_I1208S] — what was its phosphorylation enrichment?
## Result 0.634

## Task Reported phosphorylation enrichment, sequence VHFARYLAMNK [HARS1_Y138_P134H] : ____
## Result 0.511

## Task Reported phosphorylation enrichment for VRVQLYDPDYM [CYP4A22_Y100] : what is it?
## Result 0.538

## Task Form field: reported phosphorylation enrichment of SVVVPYEPPEG [TP53_Y220_V225G]
## Result 0.533

## Task Tell me the measured phosphorylation enrichment of LRVGFYESDVM [A2M_Y708] , please.
## Result 1.39

## Task Which phosphorylation enrichment is listed for EQLRAYLEGEC [HLA-C_Y183_T187E] ?
## Result 0.514

## Task Request the reported phosphorylation enrichment associated with WRVIGYHVVVW [ATP13A2_Y50]
## Result 0.551

## Task What value of measured phosphorylation enrichment is listed for IGMSSYVMLAS [GGCX_Y301_F299S] ?
## Result 1.88

## Task Given LRNIDYFRLDG [ATRX_Y2083_YF] , state its recorded phosphorylation enrichment.
## Result 21.5

## Task Can you look up the measured phosphorylation enrichment of EQLRAYLEGLC [HLA-C_Y183_T187L] for me?
## Result 0.512

## Task Fill in: phosphorylation enrichment of TEALFYTDDTA [ADPRS_Y75_YF] is ___
## Result 0.535

## Task For the sequence shown here, SGDDGYAKDAK [TENM4_Y1530] , give the reported phosphorylation enrichment.
## Result 0.501

## Task Fill in the blank: the reported phosphorylation enrichment of DISEPYEVFRI [IRF8_Y107_K108E_YF] is ____.
## Result 0.661
